- Tested on: HOP-62
- assay.summary: NCI tumour cell line growth inhibition, 48 h
The source made the active and inactive calls. Rule as the data show it: active = GI50 up to about 1.1 µM and inactive = higher.
Labels: yes = active, no = inactive

>  <compound>
CC(CNC(N)=O)NC(N)=O (stereo not given)

>  <assigned.label>
no

$$$$
>  <compound>
COC1(C(C)(C)C)C=C(C(C)(C)C)P(=O)(O)O1 (stereo not given)

>  <assigned.label>
no

$$$$
>  <compound>
Cc1ccc(S(=O)(=O)CNC(=O)C(O)(O)C(F)(F)F)cc1

>  <assigned.label>
no

$$$$
>  <compound>
S=C(Nc1ccc2c(c1)Cc1ccccc1-2)Nc1ccc2c(c1)Cc1ccccc1-2

>  <assigned.label>
no

$$$$
>  <compound>
C/C(=N\N)C(CN1CCCCC1)C(c1ccccc1)c1c(O)c2ccccc2oc1=O (stereo not given)

>  <assigned.label>
no

$$$$
>  <compound>
COc1ccc(C(=O)N2CCN(c3ccc4[nH]c(=O)oc4c3)CC2)cc1

>  <assigned.label>
no

$$$$
>  <compound>
NC(=S)N/N=C/C(=C/Nc1ccccc1)[N+](=O)[O-]

>  <assigned.label>
no

$$$$
>  <compound>
COc1nc(SC)nc2c1C(O)n1c(nc3ccccc31)S2 (stereo not given)

>  <assigned.label>
no

$$$$
>  <compound>
O=C(c1ccco1)N(C(=S)N1CCN(c2ccccc2)CC1)C1CCCCC1

>  <assigned.label>
no

$$$$
>  <compound>
COC(=O)[C@]12CCC(C)[C@H](C)[C@H]1C1=CCC3[C@@]4(C)CC[C@H](OC(C)=O)C(C)(C)C4CC[C@@]3(C)C1(C)C(O)C2 (stereo not given in full)

>  <assigned.label>
no

$$$$
>  <compound>
C/C=C1/CN2[C@@H](C3=C[C@@H]4[C@@H]5N(C3=O)c3ccccc3[C@@]53CCN5C/C(=C/C)[C@@H]4C[C@H]53)C[C@@]34c5ccccc5N5C(=O)CC=C([C@H]1C[C@H]23)[C@H]54

>  <assigned.label>
no

$$$$
>  <compound>
COc1ccc(-c2cc(O)c3cc(C)cnc3n2)cc1

>  <assigned.label>
no

$$$$
>  <compound>
CN(C)CCNCc1ccc2c(-c3ccccc3)nc3cc(Cl)c(Cl)cc3n12

>  <assigned.label>
no

$$$$
>  <compound>
CN(C)CCNc1ccc(C(=O)NCCCN(C)CCCNC(=O)c2ccc(NCCN(C)C)c3c(=O)c4ccccc4[nH]c23)c2[nH]c3ccccc3c(=O)c12

>  <assigned.label>
yes

$$$$
>  <compound>
C[N+](C)(C)CC(=O)N/N=C(\C(=O)Nc1ccc(Cl)cc1)C1C(=O)N(c2ccccc2)N=C1N (stereo not given)

>  <assigned.label>
no

$$$$
>  <compound>
COC(=O)C1(C(=O)OC)CC2=C(S(=O)(=O)c3ccccc3)C[C@H](C#N)[C@H]2C1

>  <assigned.label>
no

$$$$
>  <compound>
NC(=S)N/N=C1/C(=O)N(c2ccc(Cl)cc2Cl)C(=O)C(=O)C1c1nc2ccccc2s1 (stereo not given)

>  <assigned.label>
no

$$$$
>  <compound>
COc1cc(C2c3cc4c(cc3OC3(OC)COC(=O)C23)OCO4)cc(OC)c1OC (stereo not given)

>  <assigned.label>
yes

$$$$
>  <compound>
Cc1n[n+]([O-])c(C)cc1[N+](=O)[O-]

>  <assigned.label>
no

$$$$
>  <compound>
Nc1cc(S(N)(=O)=O)ccc1SSc1ccc(S(N)(=O)=O)cc1N

>  <assigned.label>
no

$$$$
